Test system: SR
Assay: NCI tumour cell line growth inhibition, 48 h
Activity calls are given as the source filed them. Rule as the data show it: active = GI50 up to about 1.1 µM and inactive = higher.
Could you please pick one outcome from this set? YES for active, NO for inactive

Would you please look over these solved cases?
Sc1nn2c(COc3cc(Cl)c(OCc4nnc5sc(S)nn45)cc3Cl)nnc2s1: NO
CCOC(=O)N1C=CC(=C2C(=C3C=CN(C(=O)OCC)C=C3)C(=C3C=CN(C(=O)OCC)C=C3)C2=C2C=CN(C(=O)OCC)C=C2)C=C1: NO
O=C1OC(c2ccccc2)C2CC3CC4(CCC3CN12)OCCO4 (configuration not stated): NO
O=C(CCCCCCCCC(=O)NN1C(=O)/C(=C\c2ccc(O)c(O)c2)SC1c1c(O)ccc2ccccc12)NN1C(=O)C(=Cc2ccc(O)c(O)c2)SC1c1c(O)ccc2ccccc12 (configuration not stated): NO
C/C(=C\c1ccc(Cl)cc1)C(C)(C)C(=O)O: NO
O=C(O)c1ccc([N+](=O)[O-])c2c(=O)c3ccccc3[nH]c12: NO

input: Which result was noted for this compound in the test: O=C(c1ccccc1)c1ccc2nc3n(c2c1)C(c1c(F)cccc1F)SC3 (configuration not stated)
output: YES

input: Any idea what this test logged for `CCc1ccccc1NC(=O)/C(CC(=O)c1c(C)[n+]([O-])c2ccccc2[n+]1[O-])=N\NS(=O)(=O)c1ccc(C)cc1` ?
output: NO

* * *

Listing of recorded GI50 by entry.
System: HCC 2998
Assay: NCI tumour cell line growth inhibition, 48 h
Calls of active or inactive are those of the source. No stated cut-off is given here; in the data, active = GI50 up to about 1.1 µM and inactive = higher.

COc1ccc(C=O)cc1Oc1ccc(C[C@H]2c3c(cc(OC)c4c3Oc3cc5c(cc3O4)CCN(C)C5=O)CCN2C)cc1: 8.28 µM (inactive)
COC(=O)C(=O)C(C(=O)C(=O)Nc1ccc(C)cc1C)c1nc2ccc(Cl)cc2nc1O (centres undefined): > 100 µM (inactive)
CCN(CC)c1ccc(/N=N/c2ccc([N+](=O)[O-])cc2OC(=O)/C=C/c2ccccc2)c(OC(=O)/C=C/c2ccccc2)c1: 12.7 µM (inactive)

Next compound, GI50 to be filled in.
input: Give recorded GI50. CC1NC(C(=O)O)Cc2cc(O)c(O)cc21 (centres undefined)
output: > 100 µM (inactive)

* * *

Tested on: HOP-62
Assay: NCI tumour cell line growth inhibition, 48 h
Counter-ions that a name gives are not always drawn. Calls of active or inactive are those of the source. Rule as the data show it: active = GI50 up to about 1.1 µM and inactive = higher.
Endpoint label: GI50

Please review the following examples before continuing.
COc1cc(OC)c2[nH]c3c(O)c(-c4c(C)cc5c([nH]c6c(OC)cc(OC)cc65)c4O)c(C)cc3c2c1: 10.3 µM (inactive)
CCc1ccc2c(c1)N(CC(C)CN(C)C)c1ccccc1S2 (stereo unspecified) [ETYMEMAZINE HYDROCHLORIDE]: 6.38 µM (inactive)
Cc1ccc(N2C(=O)CC(=O)N(NC(=O)C(C)Oc3ccccc3C)C2=S)cc1 (stereo unspecified): > 100 µM (inactive)
CCN(CC)c1ccc(/N=N/c2ccc([N+](=O)[O-])cc2OC(=O)/C=C/c2ccccc2)c(OC(=O)/C=C/c2ccccc2)c1: 2.12 µM (inactive)
CCc1ccccc1NC(=O)/C(CC(=O)c1c(C)[n+]([O-])c2ccccc2[n+]1[O-])=N\NS(=O)(=O)c1ccc(C)cc1: > 100 µM (inactive)
CCCN(CCC)C1CC(n2cc(C)c(=O)[nH]c2=O)OC1CO (stereo unspecified): > 100 µM (inactive)

input: Identify measured GI50 corresponding to `Cn1ncc2c(NCCc3ccccc3)nc(Cl)nc21`
output: 24.4 µM (inactive)

input: Please indicate GI50 recorded for `COc1ccc(CCN2CCc3c(C)c(C#N)c4nc5ccccc5n4c32)cc1OC`
output: 33.7 µM (inactive)

input: Identify GI50 associated with the compound C[C@]12CC[C@H](O)CC1=CC[C@@H]1C2CC[C@]2(C)NC(=O)C(C#N)CC12 (stereo partly specified)
output: > 100 µM (inactive)

input: Check the records and state GI50 for `COc1ccc([I+]c2ccc(OC)cc2)cc1`
output: 12.1 µM (inactive)

input: Complete the entry with GI50 for `COc1cc(-c2oc3c(OC)c(O)c(OC)c(O)c3c(=O)c2OC)cc(OC)c1OC`
output: 28.8 µM (inactive)

input: For the compound `COc1ccccc1/N=N/c1c(O)c(S(=O)(=O)O)cc2cc(S(=O)(=O)O)ccc12` , report GI50.
output: > 100 µM (inactive)

input: Quickly give me recorded GI50 for `Cn1c2ccccc2c2ccc3c(c21)C(=O)C=CC3=O`
output: 28 µM (inactive)

input: Recall and state the measured GI50 for CC1(C)CCOC(=O)C(Cl)CC1Cl (stereo unspecified) .
output: > 100 µM (inactive)

input: Indicate the recorded GI50 value for this compound: N#CC1C(=O)Nc2sc(C(=O)c3ccc(Br)cc3)c(N)c2C12CCCCC2 (stereo unspecified)
output: 38.5 µM (inactive)

input: Report GI50 for N#CSCC1COc2ccccc2O1 (stereo unspecified)
output: > 10 µM (inactive)

input: Give me measured GI50, please, for this compound: `NCCNc1nc(N2CCCC2)c2nc(Cl)c(NCc3ccccc3)nc2n1`
output: 1.67 µM (inactive)

input: Return GI50 (reported value) for this compound: `O=C(O)CCSC(=O)Nc1ccccc1`
output: > 100 µM (inactive)

input: Consider the compound `C[C@H]1S[C@H](c2c(F)cccc2F)n2c1nc1ccccc12` and give its recorded GI50.
output: > 100 µM (inactive)

input: Quick one: give measured GI50 for `O=C1CNC(=O)/C(=C/c2c[nH]c3ccccc23)N1`
output: > 100 µM (inactive)

input: Output measured GI50 for this item: O=C(NC(Cc1c[nH]cn1)C(=O)N1CCCC1)C1CCCC1 (stereo unspecified)
output: > 100 µM (inactive)
